Recorded inhibition at 0.1 µM for the following molecules
Target: α7-type neuronal nicotinic acetylcholine receptors (Rattus norvegicus)
Construct: from tissue; host or cells: rat brain membranes (whole brain without cortex, striatum and cerebellum)
Sequence (Q05941 23-502): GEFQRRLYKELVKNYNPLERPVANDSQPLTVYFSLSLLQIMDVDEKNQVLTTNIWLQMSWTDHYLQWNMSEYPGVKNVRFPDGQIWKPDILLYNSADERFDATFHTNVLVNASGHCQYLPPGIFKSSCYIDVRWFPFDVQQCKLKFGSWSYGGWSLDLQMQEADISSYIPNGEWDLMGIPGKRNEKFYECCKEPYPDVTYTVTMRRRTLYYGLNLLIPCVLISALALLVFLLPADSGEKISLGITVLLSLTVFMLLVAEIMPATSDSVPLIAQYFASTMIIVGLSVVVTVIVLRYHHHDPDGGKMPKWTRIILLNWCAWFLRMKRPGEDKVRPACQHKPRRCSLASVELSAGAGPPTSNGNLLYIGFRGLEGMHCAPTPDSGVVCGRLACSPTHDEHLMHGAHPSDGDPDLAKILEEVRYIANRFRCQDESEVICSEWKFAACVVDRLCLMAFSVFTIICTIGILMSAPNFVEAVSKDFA
Assay: Inhibition of [3H]Methyllycaconitine (MLA) binding assay, rat brain membranes
Conditions: % inhibition at 100 nM concentration of analog; rat brain membranes; 2.5 nM [3H]MLA; read-out: Inhibition of [3H]MLA binding
Answer with a number only, understood to be in %.

Some molecules with recorded inhibition at 0.1 µM:
Cc1cc[n+](CCCCCc2cc(CCCCC[n+]3ccc(C)c(C)c3)cc(CCCCC[n+]3ccc(C)c(C)c3)c2)cc1C [GZ557B] ... 0.2
Cc1cc[n+](CCCCCc2cc(CCCCC[n+]3ccc(C)cc3)cc(CCCCC[n+]3ccc(C)cc3)c2)cc1 [GZ555C] ... 0
c1ccc(-c2ccc[n+](CCCCCc3cc(CCCCC[n+]4cccc(-c5ccccc5)c4)cc(CCCCC[n+]4cccc(-c5ccccc5)c4)c3)c2)cc1 [GZ558A] ... 19
Cc1ccc[n+](CCCCCc2cc(CCCCC[n+]3cccc(C)c3)cc(CCCCC[n+]3cccc(C)c3)c2)c1 [GZ555A] ... 1.2
Cc1ccc[n+](CCCC#Cc2cc(C#CCCC[n+]3cccc(C)c3)cc(C#CCCC[n+]3cccc(C)c3)c2)c1 [GZ550A] ... 0
CN1CCC[C@H]1c1ccc[n+](CCCCCc2cc(CCCCC[n+]3cccc([C@@H]4CCCN4C)c3)cc(CCCCC[n+]3cccc([C@@H]4CCCN4C)c3)c2)c1 [GZ558C] ... 7.9
Cc1cc(C)c[n+](CCCCCc2cc(CCCCC[n+]3cc(C)cc(C)c3)cc(CCCCC[n+]3cc(C)cc(C)c3)c2)c1 [GZ557A] ... 6.5
C(#Cc1cc(C#CCCC[n+]2cccc3ccccc32)cc(C#CCCC[n+]2cccc3ccccc32)c1)CCC[n+]1cccc2ccccc21 [GZ552A] ... 21

Consider now this further molecule.
Query: // Input: C(#Cc1cc(C#CCCC[n+]2cccc(-c3ccccc3)c2)cc(C#CCCC[n+]2cccc(-c3ccccc3)c2)c1)CCC[n+]1cccc(-c2ccccc2)c1 [GZ550B] . Output its inhibition at 0.1 µM only.
Result: 39
